Biological target: acetylcholinesterase (Mus musculus)
Construct: Using a mouse brain homogenate as a source of acetylcholinesterase; from tissue; host or cells: mouse brain homogenate
Sequence (P21836 32-614): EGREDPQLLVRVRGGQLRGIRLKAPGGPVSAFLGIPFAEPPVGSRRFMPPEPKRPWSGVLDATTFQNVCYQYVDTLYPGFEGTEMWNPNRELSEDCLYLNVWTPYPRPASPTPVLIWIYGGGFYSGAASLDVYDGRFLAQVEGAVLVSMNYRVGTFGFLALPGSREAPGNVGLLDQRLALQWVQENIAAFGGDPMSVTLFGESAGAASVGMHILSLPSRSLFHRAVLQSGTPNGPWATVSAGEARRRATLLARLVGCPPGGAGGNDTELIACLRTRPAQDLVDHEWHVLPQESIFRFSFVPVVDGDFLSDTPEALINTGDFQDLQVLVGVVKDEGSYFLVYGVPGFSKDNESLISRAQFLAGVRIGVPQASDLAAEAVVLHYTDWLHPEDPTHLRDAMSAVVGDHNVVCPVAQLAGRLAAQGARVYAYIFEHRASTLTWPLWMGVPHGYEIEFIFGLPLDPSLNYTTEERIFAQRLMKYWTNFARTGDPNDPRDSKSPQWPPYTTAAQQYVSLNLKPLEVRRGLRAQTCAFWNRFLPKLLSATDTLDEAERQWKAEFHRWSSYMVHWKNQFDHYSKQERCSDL
Test: biochemical
Format: biochemical
Conditions: mouse brain homogenate; thiocholine method, absorbance at 412 nm; read-out: AChE inhibitory activity IC50
property.measured: IC50 (nM)
Note: unit nM is implicit; provide only the numeric part.

Completed entries (count: 3):
{"record.smiles": "CCN(CC)C(=O)c1ccc2c(c1)C(=O)N(CCC1CCN(Cc3ccccc3)CC1)C2=O", "unit.symbol": "nM", "IC50": 1.5}
{"record.smiles": "CN(CCC1CCN(Cc2ccccc2)CC1)C(=O)c1ccc(S(=O)(=O)C2CCCC2)cc1", "unit.symbol": "nM", "IC50": 21}
{"record.smiles": "O=C(Nc1ccc2c(c1)C(=O)N(CCC1CCN(Cc3ccccc3)CC1)C2=O)c1ccccc1", "unit.symbol": "nM", "IC50": 0.88}

Request: // query IC50 value for entry O=C(NCCC1CCN(Cc2ccccc2)CC1)c1ccc([N+](=O)[O-])cc1
Result: 55

Request: // query IC50 value for entry O=C(NCCC1CCN(Cc2ccccc2)CC1)c1ccc(C(=O)NCc2ccccc2)cc1
Result: 9
